Target: melanocortin 5 receptor (MC5R) (UniProt P33032)
Sequence (P33032 whole entry): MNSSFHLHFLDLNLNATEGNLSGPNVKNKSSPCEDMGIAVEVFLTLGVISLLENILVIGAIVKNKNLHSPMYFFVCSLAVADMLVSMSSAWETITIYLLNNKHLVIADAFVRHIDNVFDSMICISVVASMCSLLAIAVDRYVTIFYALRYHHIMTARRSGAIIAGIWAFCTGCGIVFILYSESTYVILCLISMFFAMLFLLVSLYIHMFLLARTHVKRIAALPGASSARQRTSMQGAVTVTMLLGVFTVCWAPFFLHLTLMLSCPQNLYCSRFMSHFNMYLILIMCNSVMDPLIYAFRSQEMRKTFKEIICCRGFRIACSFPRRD
Experiment: 125I-NDP-MSH competition, HEK293 membranes
pKi: −log10 of the molar value. [ ]: non-standard residue; d: D form.
measure.name: pKi

Below are worked cases with known answers.
1) VPKGWRXHEMSYS (N-terminal acetyl (Ac); C-terminal amide; D-cyclohexylalanine (D-Cha) at 7; D-isomers at all residues except Gly 4) [peptide 869]    4.60
2) Ac-[dV][dP][dK]G[dW][dR][dF][dH][dS][dI][dI][dS][dS]-NH2 (SMILES CC[C@@H](C)[C@@H](NC(=O)[C@@H](CO)NC(=O)[C@@H](Cc1c[nH]cn1)NC(=O)[C@@H](Cc1ccccc1)NC(=O)[C@@H](CCCNC(=N)N)NC(=O)[C@@H](Cc1c[nH]c2ccccc12)NC(=O)CNC(=O)[C@@H](CCCCN)NC(=O)[C@H]1CCCN1C(=O)[C@H](NC(C)=O)C(C)C)C(=O)N[C@@H](C(=O)N[C@H](CO)C(=O)N[C@H](CO)C(N)=O)[C@H](C)CC) [peptide 886]    4.70

(1) VPKGWRFHEXSYS (N-terminal acetyl (Ac); C-terminal amide; D-buthionine at 10; D-isomers at all residues except Gly 4) [peptide 878]
(2) VPKGWRXHEXSYS (N-terminal acetyl (Ac); C-terminal amide; D-Cha at 7; D-buthionine at 10; D-isomers at all residues except Gly 4) [peptide 890]
input: Lower value for measured pKi? Options: 1 , 2 // output: label of the selected item
output: 1

Every entry's value here was drawn from patent US20170313756A1.
